# credit: patent US9388210B2

target: rat α1β2γ2L type GABAA receptors (Rattus norvegicus (Rat), UniProt P62813+P63138, INS375LLRMFSFK); assay: Oocyte electrophysiology: potentiation of 2 μM GABA chloride currents and direct gating, Xenopus laevis oocytes; format: cell-based; conditions: 10 μM compound, 2 μM GABA; ± SEM, N ≥ 4
Assign class by ratio of currents measured in the presence/absence of added compound, 10 μM: not lower than 7 means fulfilled; lower than 7 means not fulfilled.

For this molecule, is measured ratio of currents measured in the presence/absence of added compound, 10 μM 7 or higher? CO[C@H]1C[C@@]2(C)[C@@H](CC[C@@H]3[C@@H]2CC[C@]2(C)/C(=C\C#N)CC[C@@H]32)C[C@@H]1O [Compound 16a]
fulfilled

For this molecule, is measured ratio of currents measured in the presence/absence of added compound, 10 μM 7 or higher? C[C@]12CC[C@@H](O)C[C@H]1CC[C@@H]1[C@@H]2CC[C@]2(C)/C(=C/C#N)CC[C@@H]12 [Compound 15b]
not fulfilled

---
For this molecule, is measured ratio of currents measured in the presence/absence of added compound, 10 μM 7 or higher? C[C@]12CC[C@@H](O)C[C@@H]1CC[C@@H]1[C@@H]2CC[C@]2(C)/C(=C\C#N)CC[C@@H]12 [Compound 14a]
not fulfilled

For this molecule, is measured ratio of currents measured in the presence/absence of added compound, 10 μM 7 or higher? CO[C@H]1C[C@@]2(C)[C@@H](CC[C@@H]3[C@@H]2CC[C@]2(C)/C(=C/C#N)CC[C@@H]32)C[C@@H]1O [Compound 16b]
not fulfilled

For this molecule, is measured ratio of currents measured in the presence/absence of added compound, 10 μM 7 or higher? CO[C@H]1C[C@]2(C)/C(=C/C#N)CC[C@H]2[C@@H]2CC[C@H]3C[C@H](O)CC[C@]3(C)[C@H]21 [Compound 17b]
not fulfilled

For this molecule, is measured ratio of currents measured in the presence/absence of added compound, 10 μM 7 or higher? C[C@]12CC[C@@H](O)C[C@@H]1CC[C@@H]1[C@@H]2CC[C@]2(C)/C(=C/C#N)CC[C@@H]12 [Compound 14b]
not fulfilled

For this molecule, is measured ratio of currents measured in the presence/absence of added compound, 10 μM 7 or higher? CO[C@H]1C[C@]2(C)/C(=C\C#N)CC[C@H]2[C@@H]2CC[C@H]3C[C@H](O)CC[C@]3(C)[C@H]21 [Compound 17a]
fulfilled
